# System: Staphylococcus aureus
# run_description: Antibacterial activity against methicillin-sensitive Staphylococcus aureus 10-11 after 18 to 24 hrs by NCCLS method
# Assay type: functional
Binarize MIC at 0.2 µg/mL; below is label 1, at or above is label 0.

Just wondering, is MIC of COc1cc(CN2CCN(c3cc4c(cc3F)c(=O)c(C(=O)O)cn4C3CC3)CC2)cc(OC)c1OC below 0.2 µg/mL?
label 0

Just wondering, is MIC of COc1ccc(OC)c(CN2CCN(c3cc4c(cc3F)c(=O)c(C(=O)O)cn4C3CC3)CC2)c1 below 0.2 µg/mL?
label 0

Just wondering, is MIC of COc1cccc(CN2CCN(c3cc4c(cc3F)c(=O)c(C(=O)O)cn4C3CC3)CC2)c1OC below 0.2 µg/mL?
label 1

Just wondering, is MIC of COc1ccc(CN2CCN(c3cc4c(cc3F)c(=O)c(C(=O)O)cn4C3CC3)CC2)cc1 below 0.2 µg/mL?
label 1

Just wondering, is MIC of COc1cc(CN2CCN(c3cc4c(cc3F)c(=O)c(C(=O)O)cn4C3CC3)CC2)cc(OC)c1 below 0.2 µg/mL?
label 0

Just wondering, is MIC of O=C(O)c1cn(C2CC2)c2cc(N3CCN(Cc4ccccc4)CC3)c(F)cc2c1=O below 0.2 µg/mL?
label 0

Just wondering, is MIC of COc1ccc(CN2CCN(c3cc4c(cc3F)c(=O)c(C(=O)O)cn4C3CC3)CC2)c(Cl)c1OC below 0.2 µg/mL?
label 0

Just wondering, is MIC of O=C(O)c1cn(C2CC2)c2cc(N3CCN(Cc4ccc5c(c4)OCCO5)CC3)c(F)cc2c1=O below 0.2 µg/mL?
label 0

Just wondering, is MIC of COc1ccc(CN2CCN(c3cc4c(cc3F)c(=O)c(C(=O)O)cn4C3CC3)CC2)cc1OC below 0.2 µg/mL?
label 1

Just wondering, is MIC of COc1cc(CN2CCN(c3cc4c(cc3F)c(=O)c(C(=O)O)cn4C3CC3)CC2)c([N+](=O)[O-])cc1OC below 0.2 µg/mL?
label 0

Just wondering, is MIC of O=C(O)c1cn(C2CC2)c2cc(N3CCN(Cc4ccc5c(c4)OCO5)CC3)c(F)cc2c1=O below 0.2 µg/mL?
label 0

Just wondering, is MIC of COc1ccc(CN2CCN(c3cc4c(cc3F)c(=O)c(C(=O)O)cn4C3CC3)CC2)c(OC)c1OC below 0.2 µg/mL?
label 1

Just wondering, is MIC of COc1cc(Br)c(CN2CCN(c3cc4c(cc3F)c(=O)c(C(=O)O)cn4C3CC3)CC2)cc1OC below 0.2 µg/mL?
label 0

Just wondering, is MIC of O=C(O)c1cn(C2CC2)c2cc(N3CCN(Cc4ccc(OCc5ccccc5)cc4)CC3)c(F)cc2c1=O below 0.2 µg/mL?
label 0

Just wondering, is MIC of O=C(O)c1cn(C2CC2)c2cc(N3CCNCC3)c(F)cc2c1=O below 0.2 µg/mL?
label 0

Just wondering, is MIC of O=C(O)c1cn(C2CC2)c2cc(N3CCN(Cc4cc5c(cc4[N+](=O)[O-])OCO5)CC3)c(F)cc2c1=O below 0.2 µg/mL?
label 0

Just wondering, is MIC of COc1cc(CN2CCN(c3cc4c(cc3F)c(=O)c(C(=O)O)cn4C3CC3)CC2)ccc1OCc1ccccc1 below 0.2 µg/mL?
label 0
